Source: PubChem BioAssay AID1159580

Experiment: chemical genetic growth profiling, strain panel (AID 1159580);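 also: tested at 20 µM; growth read once vehicle control cultures reached saturation at 30 °C; 1 = growth at the plate median or of vehicle wells; lower values mean less growth of the strain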
Conditions: S. cerevisiae deletion strains, growth OD, locus YGL227W, strain vid30
The whole screen tested about 5,500 compounds, of which about 2,000 (36%) were called active. Not shown: some 18% with an inconclusive outcome. Rule as the data show it: active = normalized growth mostly below about 0.91 (no sharp cut-off); inconclusive = no clear call, values can overlap the other calls; inactive = mostly above about 0.92. This is one part of the list.
Give your call using only these classes: true = active, false = inactive

Compound	Class
COc1cc(OC)c2c(c1Cl)OC1(C2=O)C(O)=CC(=O)CC1C (configuration not stated)	false
CC(C)=CCOc1cc2oc(=O)ccc2cc1O	false
CC(C)=CCC/C(C)=C/COc1ccc2ccc(=O)oc2c1	false
O=c1ccc2cc(O[C@@H]3O[C@H](CO)[C@@H](O)[C@H](O)[C@H]3O)c(O)cc2o1	false
COc1ccc2[nH]cc(CCNC(C)=O)c2c1	false

Now turn to the next compound.
Task: Status in this test for `Cn1c(=O)[nH]c(=O)c2[nH]cnc21` ?
Result: false

====

Assay: chemical genetic growth profiling, strain panel (AID 1159580);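 also: tested at 20 µM; growth read once vehicle control cultures reached saturation at 30 °C; 1 = growth at the plate median or of vehicle wells; lower values mean less growth of the strain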
Details: S. cerevisiae deletion strains, growth OD, locus YER167W, strain BCK2
The whole screen tested about 5,500 compounds, of which about 2,000 (36%) were called active. About 18% were inconclusive and are not listed. Rule as the data show it: active = normalized growth mostly below about 0.91 (no sharp cut-off); inconclusive = no clear call, values can overlap the other calls; inactive = mostly above about 0.92. The list shows a part of the results.
Give your call using only these classes: t (active), f (inactive)

Sample answers from the record:
Molecule	Class
COc1ccc2ccc(=O)oc2c1CC=C(C)C	t
O=c1ccc2cc(O[C@@H]3O[C@H](CO)[C@@H](O)[C@H](O)[C@H]3O)c(O)cc2o1	f
CC(=O)OC1CCC23C(=O)OC45CCC(C6=CC(=O)OC6)C4(C)CCC2C5CCC3(O)C1 (stereo not drawn)	f
CC(=O)OCC(=O)[C@@]1(O)CCC2C3CCC4=CC(=O)CC[C@]4(C)[C@@]3(F)[C@@H](O)C[C@@]21C (stereo partly drawn)	f
CCCC(=O)Nc1ncnc2c1ncn2C1O[C@@H]2COP(=O)(O)O[C@H]2[C@H]1OC(=O)CCC (stereo partly drawn)	f
CCOc1ccc(Cc2nccc3cc(OCC)c(OCC)cc23)cc1OCC	f
COc1cc2ccc(=O)oc2c(OC)c1OC	f
OCCN1CCN(CCCN2c3ccccc3Sc3ccc(Cl)cc32)CC1	f
COc1cc(O)c(C)c(O)c1	f
COc1cc(O)c(C(=O)c2ccccc2)c(OC)c1	f

Now turn to the next molecule.
Task: Status in this test for `CCS(=O)(=O)CCn1c([N+](=O)[O-])cnc1C` ?
Result: f

====

Assay: chemical genetic growth profiling, strain panel (AID 1159580);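 also: tested at 20 µM; growth read once vehicle control cultures reached saturation at 30 °C; 1 = growth at the plate median or of vehicle wells; lower values mean less growth of the strain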
Conditions: S. cerevisiae deletion strains, growth OD, locus YNL197C, strain WHI3, active compounds read low
The campaign covered roughly 5,500 compounds. About 2,000 (36%) were called active. Roughly 18% stayed inconclusive and do not appear here. The list shows a part of the results.
Provide the recorded normalized growth for the entries that follow.
Answers are plain numbers.

Compound	normalized growth
Cc1nccc2c1[nH]c1ccccc12	0.955
CSc1nc(N)c2ncn([C@@H]3O[C@H](COP(=O)(O)OP(=O)(O)O)[C@H](O)C3O)c2n1 (some centres undefined)	0.99
COC(=O)c1cc2c(cn1)[nH]c1ccccc12	0.993
C[C@]12CC[C@@H](O)CC1CC[C@@H]1[C@@H]2CC[C@]2(C)C(=O)CC[C@@H]12 (some centres undefined)	0.993
NCCS	1.01
CCCN(CCC)[C@@H]1CCc2ccc(O)cc2C1	0.982

Return reported normalized growth values for all items listed beneath this line.
1. CC(N)=NCc1cccc(CN)c1
2. C[C@]12C=CC(=O)C=C1CC[C@H]1[C@@H]3C[C@@H](O)[C@](O)(C(=O)CO)[C@@]3(C)C[C@H](O)[C@@]12F
3. COc1cccc2c1[C@@H]1CN(CCCCn3c(=O)[nH]c4c(sc5ncc(-c6ccccc6)nc54)c3=O)C[C@@H]1CO2

Result:
1: 1; 2: 0.987; 3: 1

Return reported normalized growth values for all items listed beneath this line.
1. N[C@@]1(C(=O)O)CC[C@@H](C(=O)O)C1
2. O=C(O)CC[C@@H](C(=O)O)N1C(=O)c2ccccc2C1=O
3. CC(C(=O)O)c1ccc(CC2CCCC2=O)cc1 (centres undefined)
4. C=CCN1CCC23c4c5ccc(O)c4O[C@H]2C(=O)CC[C@@]3(O)C1C5 (some centres undefined)
5. CN=C(N)NCCC[C@H](N)C(=O)O
6. O=C1C=CC(=O)C=C1
7. CCCCCC(CC(=O)NO)C(=O)NC(C(=O)N1CCCC1CO)C(C)C (centres undefined)
8. OCCN1CCN(CCCN2c3ccccc3Sc3ccc(Cl)cc32)CC1

Result:
[1.02, 0.976, 1.02, 1.01, 1.01, 1.05, 0.987, 1.02]

Return reported normalized growth values for all items listed beneath this line.
1. NC(=S)c1ccc[n+]([C@@H]2O[C@@H](COP(=O)([O-])OP(=O)(O)OC[C@H]3O[C@@H](n4cnc5c(N)ncnc54)C(OP(=O)(O)O)[C@H]3O)C(O)C2O)c1 (some centres undefined)
2. NOCC(=O)O

Result:
1. 1.03
2. 0.993
